tested on: NCI-H226; test: NCI tumour cell line growth inhibition, 48 h
The source made the active and inactive calls. No stated cut-off is given here; in the data, active = GI50 up to about 1.1 µM and inactive = higher.
Measurement Name: GI50

Reference set, count: 5
- Compound: "O=C(NNc1ccccc1)c1ccc(Cl)c(Cl)c1"
  GI50: "29.9 µM (inactive)"
- Compound: "COc1ccc(C(c2cc(OC)c(OC)c(OC)c2)N2C(=O)CCC2C(=O)O)cc1 (stereo not drawn)"
  GI50: "74.3 µM (inactive)"
- Compound: "C=CCNC1=NC(=O)C(CC(=O)Nc2cccc(Cl)c2)S1 (stereo not drawn)"
  GI50: "> 100 µM (inactive)"
- Compound: "C#CCOCn1cc(C)c(=O)[nH]c1=O"
  GI50: "> 100 µM (inactive)"
- Compound: "CCC/C(Cl)=N/OC(=O)Nc1cccc(F)c1"
  GI50: "14.6 µM (inactive)"

Next compound, please.
The reported GI50 of the compound C=C(CO)CC(O)c1cc(OC)ccc1OC (stereo not drawn) was > 100 µM (inactive)

Entry source: ChEMBL document CHEMBL1201862
